Test system: CASKI
Test: Primary qHTS to identify gynecologic anti-cancer compounds using libraries of approved drugs and bioactive compounds (AID 1345084); note: % is set by controls: 0 for no effect and ±100 for the full control effect; nearly all actives have a fitted effect of over 55% in size
Conditions: Gynecologic cancer cell panel viability, ATPlite luminescence, 48 h; series mostly up to 57.5 µM
Inconclusive results are not listed. The source made the active and inactive calls. Calls come from the whole dose curve; as a rule, active = well fitted cell-killing curve with a large enough effect; inconclusive = small, poorly fitted or top-dose-only effect, or effect the other way; inactive = flat fitted curve, though single readings scatter.
quantity-kind: activity change, negative = cytotoxicity

Sample records with activity change, negative = cytotoxicity:
CC1(C)CC[C@]2(C(=O)O)CC[C@]3(C)C(=CCC4[C@@]5(C)CC[C@H](O[C@@H]6O[C@H](C(=O)O)[C@@H](O)[C@H](O)[C@H]6O)C(C)(CO)C5CC[C@]43C)C2C1 (stereo partly specified); inactive
COc1cc(/C=C/C(=O)OC2[C@H](O)CC(O)(C(=O)O)C[C@H]2O)ccc1O (stereo partly specified); inactive
COC1CC(OC2CCC3(C)C(=CCC4C3CCC3(C)C(C(C)O)CCC43O)C2)OC(C)C1OC1OC(C)C(OC2OC(COC3OC(COC4OC(CO)C(O)C(O)C4O)C(O)C(O)C3O)C(O)C(O)C2O)C(OC)C1O (stereo unspecified); 16.9% [at 11.6 µM] (inactive)
COc1cc(N2CCC(O)CC2)ccc1Nc1cc(Nc2ccccc2S(=O)(=O)C(C)C)c2cc[nH]c2n1; inactive
COC1C=C([C@@H]2CC=C3[C@@]4(C)C(CC[C@]32C)[C@@]2(C)C=CC(=O)C(C)(C)C2C[C@H]4OC(C)=O)C(=O)O1 (stereo partly specified); inactive

In the following, a different molecule is considered.
# activity change, negative = cytotoxicity of CC1CCC2(O1)C(C)(C)CC(O[C@@H]1O[C@H](CO[C@@H]3OC[C@](O)(CO)[C@H]3O)[C@@H](O)[C@H](O)[C@H]1O)CC2(C)O (stereo partly specified) = inactive
